Reference source for all entries: ChEMBL document CHEMBL1961873

- target.or.test.system: Testis-specific serine/threonine-protein kinase 1 (Homo sapiens);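 note: reported value is the mean inhibition, from the GSK PKIS kinase screening panel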
- test.context: at 1 µM
Mark no for inhibition values under 4%, and yes for everything at or above.

- smiles: "NC(=O)c1cc(-c2ccc(F)cc2)cc(-c2ccncc2)c1N"
  class.name: "yes"

### Prompt inhibition >= 4% for C[C@@H](Oc1cc(-n2cnc3ccc(OC4CCN(C)CC4)cc32)sc1C(N)=O)c1ccccc1Cl ?
### Response yes

### Prompt inhibition >= 4% for COc1ccc2cc(-c3c(-c4ccncc4)nc(-c4ccc(S(C)(=O)=O)cc4C)n3C)ccc2c1 ?
### Response yes

### Prompt inhibition >= 4% for COc1cccc(/C=N/Nc2ncnc3c2cnn3-c2cccc(OC)c2)c1 ?
### Response no

### Prompt inhibition >= 4% for CS(=O)(=O)CCNCc1cc(-c2cc3c(Nc4ccc(OCc5cccc(F)c5)c(Cl)c4)ncnc3s2)cs1 ?
### Response yes

### Prompt inhibition >= 4% for Fc1ccc(-c2ncn(C3CCNCC3)c2-c2ccnc(Oc3ccc(Oc4ccccc4)cc3)n2)cc1 ?
### Response yes

---

// values below are reported inhibition
- target.or.test.system: Cyclin-dependent kinase 6 (Homo sapiens) (UniProt Q00534);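 note: mean percent inhibition of CDK6 complexed with cyclin D3, from the GSK PKIS kinase inhibitor screen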
- Sequence (Q00534 whole entry): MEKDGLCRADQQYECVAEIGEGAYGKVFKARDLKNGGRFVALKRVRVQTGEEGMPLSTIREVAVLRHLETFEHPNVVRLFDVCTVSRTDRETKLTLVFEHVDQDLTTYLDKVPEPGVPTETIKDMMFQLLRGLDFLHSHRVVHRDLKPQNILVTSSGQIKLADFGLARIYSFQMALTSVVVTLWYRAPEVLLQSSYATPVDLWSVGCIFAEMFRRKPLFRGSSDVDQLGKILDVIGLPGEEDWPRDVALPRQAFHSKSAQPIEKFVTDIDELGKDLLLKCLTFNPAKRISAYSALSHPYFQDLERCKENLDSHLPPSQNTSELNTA
- test.context: at 0.1 µM
The reply should contain only the number, in %.

Examples with answers:
- molecule: "CCc1ccc(Oc2nccc(-c3c(-c4ccc(F)cc4)ncn3C3CCNCC3)n2)cc1"
  target.or.test.system: "Cyclin-dependent kinase 6 (Homo sapiens) (UniProt Q00534)"
  inhibition, %: -3.34
- molecule: "FC(F)(F)c1cccc(Nc2nccc(-c3cnn4nc(-c5ccccc5)ccc34)n2)c1"
  target.or.test.system: "Cyclin-dependent kinase 6 (Homo sapiens) (UniProt Q00534)"
  inhibition, %: 0.39
- molecule: "CCc1nccc2c1nc(-c1nonc1N)n2CC"
  target.or.test.system: "Cyclin-dependent kinase 6 (Homo sapiens) (UniProt Q00534)"
  inhibition, %: -8.01

### Prompt Please indicate inhibition recorded for Fc1ccc(-c2ncn(C3CCNCC3)c2-c2ccnc(Oc3ccc4c(c3)OCO4)n2)cc1
### Response 1.03

### Prompt Please indicate inhibition recorded for COc1cc(Nc2ncc3c(C)nc(-c4cccc(Oc5ccccc5)c4)n3n2)cc(OC)c1OC
### Response 2.92

### Prompt Please indicate inhibition recorded for O=C(NCC1CC1)c1ccc(-c2cccc(C(=O)NC3CC3)c2)cc1
### Response 5.87

### Prompt Please indicate inhibition recorded for C/C(Nc1ccc(S(N)(=O)=O)cc1)=C1/C(=O)Nc2ccccc21
### Response 37

### Prompt Please indicate inhibition recorded for Nc1nccc(-c2c(-c3ccc(F)cc3)ncn2C2CCC(O)CC2)n1 (stereo not given)
### Response 1.41

### Prompt Please indicate inhibition recorded for CN(C)CCOc1ccc(-c2cc(-c3ccc4c(c3)CCC4=NO)c(-c3ccncc3)o2)cc1
### Response -3.52

### Prompt Please indicate inhibition recorded for O=C(Nc1n[nH]c2nc(-c3ccc(O)cc3)c(Br)cc12)C1CC1
### Response 38.9

---

// values below are reported inhibition
- target.or.test.system: Muscle, skeletal receptor tyrosine-protein kinase (Homo sapiens);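 note: reported value is the mean percent inhibition of MuSK kinase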
- Sequence (whole entry): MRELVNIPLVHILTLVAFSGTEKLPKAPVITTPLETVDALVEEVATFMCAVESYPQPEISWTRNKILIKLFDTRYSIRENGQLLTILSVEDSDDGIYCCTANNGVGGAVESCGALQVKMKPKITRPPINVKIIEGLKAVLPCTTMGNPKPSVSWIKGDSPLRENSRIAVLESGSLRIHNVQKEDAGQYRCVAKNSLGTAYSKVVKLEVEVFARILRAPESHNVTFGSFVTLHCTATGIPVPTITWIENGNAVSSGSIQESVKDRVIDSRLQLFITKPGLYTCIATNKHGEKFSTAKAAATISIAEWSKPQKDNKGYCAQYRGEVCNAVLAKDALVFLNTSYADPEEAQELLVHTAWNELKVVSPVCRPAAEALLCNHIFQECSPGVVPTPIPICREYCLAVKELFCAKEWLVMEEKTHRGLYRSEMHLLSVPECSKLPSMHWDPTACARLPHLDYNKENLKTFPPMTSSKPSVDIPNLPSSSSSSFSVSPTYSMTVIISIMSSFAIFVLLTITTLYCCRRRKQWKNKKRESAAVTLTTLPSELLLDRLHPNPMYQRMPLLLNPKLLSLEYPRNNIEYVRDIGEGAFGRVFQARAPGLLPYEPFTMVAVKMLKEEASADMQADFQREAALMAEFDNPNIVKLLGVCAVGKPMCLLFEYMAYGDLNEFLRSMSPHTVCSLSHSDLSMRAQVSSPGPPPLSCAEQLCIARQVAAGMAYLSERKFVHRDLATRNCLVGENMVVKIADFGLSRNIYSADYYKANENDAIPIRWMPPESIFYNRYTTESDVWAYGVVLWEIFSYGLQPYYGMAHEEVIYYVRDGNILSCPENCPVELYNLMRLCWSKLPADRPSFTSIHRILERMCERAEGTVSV
- test.context: at 1 µM
The reply should contain only the number, in %.

Examples with answers:
- smiles: "COc1cccc(-n2cnc3c(N/N=C/c4ccncc4)ncnc32)c1"
  target.or.test.system: "Muscle, skeletal receptor tyrosine-protein kinase (Homo sapiens)"
  inhibition [%]: 17.1
- smiles: "O=C1Nc2ccccc2/C1=C/Nc1ccc(-n2cncn2)cc1"
  target.or.test.system: "Muscle, skeletal receptor tyrosine-protein kinase (Homo sapiens)"
  inhibition [%]: 30.9
- smiles: "Fc1ccc(-c2ncn(C3CCNCC3)c2-c2ccnc(Oc3ccc(Oc4ccccc4)cc3)n2)cc1"
  target.or.test.system: "Muscle, skeletal receptor tyrosine-protein kinase (Homo sapiens)"
  inhibition [%]: 8.37
- smiles: "CN(C)CCCNc1nccc(-c2c(-c3ccc(F)cc3)nn3cc(C(F)(F)F)ccc23)n1"
  target.or.test.system: "Muscle, skeletal receptor tyrosine-protein kinase (Homo sapiens)"
  inhibition [%]: 12.5
- smiles: "NCc1ccc(-n2c(-c3nonc3N)nc3cnccc32)cc1"
  target.or.test.system: "Muscle, skeletal receptor tyrosine-protein kinase (Homo sapiens)"
  inhibition [%]: 8.78

### Prompt Please indicate inhibition recorded for CCS(=O)(=O)c1ccc(OC)c(Nc2ncc(-c3ccccc3Cl)o2)c1
### Response 8.58

### Prompt Please indicate inhibition recorded for CN(c1ccc(NC(=O)Nc2c(Cl)cccc2Cl)cc1)c1ccnc(Nc2cccc(CS(C)(=O)=O)c2)n1
### Response 89.9

### Prompt Please indicate inhibition recorded for c1ccc(-c2n[nH]cc2-c2ccnc(-c3ccc(OCCN4CCOCC4)cc3)c2)nc1
### Response 9.04

### Prompt Please indicate inhibition recorded for NC(=O)Cc1ccccc1Oc1nccc(-c2c(-c3ccc(F)cc3)ncn2C2CCNCC2)n1
### Response 1.69

### Prompt Please indicate inhibition recorded for O=C(NCC1CC1)c1ccc(-c2cccc(C(=O)NC3CC3)c2)cc1
### Response 7.49

---

- target.or.test.system: Misshapen-like kinase 1 (Homo sapiens);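 note: mean inhibition value reported, from GSK PKIS kinase profiling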
- test.context: at 0.1 µM
Class assignment keyed on inhibition, ranges lower bin: < 3%; middle bin: ≥ 3% and < 6%; upper bin: ≥ 6%

### Prompt Band for Nc1nccc(-c2c(-c3ccc(F)cc3)ncn2C2CCC(O)CC2)n1 (stereo not given) ?
### Response upper bin

---

- target.or.test.system: Serine/threonine-protein kinase Nek9 (Homo sapiens) (UniProt Q8TD19);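 note: each value is a mean percent inhibition of NEK9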
- Sequence (Q8TD19 whole entry): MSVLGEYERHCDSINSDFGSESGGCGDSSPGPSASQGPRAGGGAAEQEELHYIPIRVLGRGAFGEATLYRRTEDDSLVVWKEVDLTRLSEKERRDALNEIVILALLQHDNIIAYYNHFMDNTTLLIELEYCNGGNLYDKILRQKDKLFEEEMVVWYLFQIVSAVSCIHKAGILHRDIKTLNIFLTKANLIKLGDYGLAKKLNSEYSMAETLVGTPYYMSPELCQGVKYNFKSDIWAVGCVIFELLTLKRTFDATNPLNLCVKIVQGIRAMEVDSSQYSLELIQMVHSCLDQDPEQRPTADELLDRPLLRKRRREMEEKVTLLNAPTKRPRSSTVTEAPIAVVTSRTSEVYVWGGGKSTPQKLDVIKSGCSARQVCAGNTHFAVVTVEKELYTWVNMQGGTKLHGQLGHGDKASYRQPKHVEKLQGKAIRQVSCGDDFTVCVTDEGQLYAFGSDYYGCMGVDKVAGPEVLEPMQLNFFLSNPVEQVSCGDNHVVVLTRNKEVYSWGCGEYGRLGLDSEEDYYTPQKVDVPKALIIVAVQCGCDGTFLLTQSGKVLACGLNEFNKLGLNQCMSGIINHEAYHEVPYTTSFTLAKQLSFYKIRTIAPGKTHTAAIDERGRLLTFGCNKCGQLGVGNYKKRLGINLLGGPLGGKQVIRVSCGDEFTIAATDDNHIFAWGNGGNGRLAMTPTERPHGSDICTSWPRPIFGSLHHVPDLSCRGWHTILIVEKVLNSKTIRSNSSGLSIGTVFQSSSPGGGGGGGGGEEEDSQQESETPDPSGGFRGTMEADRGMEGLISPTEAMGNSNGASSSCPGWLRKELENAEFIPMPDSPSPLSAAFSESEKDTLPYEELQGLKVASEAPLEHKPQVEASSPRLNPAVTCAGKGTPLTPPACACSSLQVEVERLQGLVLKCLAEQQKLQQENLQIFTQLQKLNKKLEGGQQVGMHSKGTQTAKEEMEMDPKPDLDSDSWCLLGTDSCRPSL
- test.context: at 1 µM
parameter: inhibition (%)
The reply should contain only the number, in %.

- compound: "CN1CCN(CCCNc2nc3ccc(Oc4ccc(NC(=O)Nc5cc(C(F)(F)F)ccc5F)cc4)cc3[nH]2)CC1"
  inhibition, %: -1.83

### Prompt Please indicate inhibition recorded for O=C(Nc1ccc(Oc2ccc3[nH]c(NC(=O)c4ccccc4)nc3c2)cc1)Nc1cc(C(F)(F)F)ccc1F
### Response 10.3

### Prompt Please indicate inhibition recorded for c1ccc(Oc2ccc(Nc3ncc(-c4ccccc4)o3)cc2)cc1
### Response 2.53

### Prompt Please indicate inhibition recorded for COc1ccc2cc(-c3c(-c4ccncc4)nc(-c4ccc([S+](C)[O-])cc4C)n3C)ccc2c1 (centres undefined)
### Response -2.02

### Prompt Please indicate inhibition recorded for NC(=O)c1cc(-c2ccc(F)cc2)cc(-c2ccncc2)c1N
### Response 19.1

### Prompt Please indicate inhibition recorded for Cc1ccc(NC(=O)c2ccoc2)cc1-c1ccc(C(=O)NCC2CC2)cc1
### Response 4.64

---

- target.or.test.system: Proto-oncogene tyrosine-protein kinase ROS (Homo sapiens);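 note: value given is the mean percent inhibition of ROS kinase activity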
- test.context: at 1 µM
parameter: inhibition (%)
The reply should contain only the number, in %.

- smiles: "O=C1NC(=O)C(c2cccc(Cl)c2)=C1Nc1ccc(Cl)c(C(=O)O)c1"
  parameter: "inhibition"
  units.label: "%"
  result.number: 0.59
- smiles: "C/C(Nc1ccc(S(N)(=O)=O)cc1)=C1/C(=O)Nc2ccccc21"
  parameter: "inhibition"
  units.label: "%"
  result.number: 8.7
- smiles: "NS(=O)(=O)c1ccc(N/N=C2\\C(=O)Nc3ccc(C(=O)NCCCn4ccnc4)cc32)cc1"
  parameter: "inhibition"
  units.label: "%"
  result.number: 13.2
- smiles: "COc1cc2ncn(-c3cc(OCc4ccccc4C(F)(F)F)c(C(C)=O)s3)c2cc1OC"
  parameter: "inhibition"
  units.label: "%"
  result.number: 7.62
- smiles: "COC(=O)Nc1nc2ccc(Sc3ccc(NC(=O)Nc4cc(C(F)(F)F)ccc4F)cc3)cc2[nH]1"
  parameter: "inhibition"
  units.label: "%"
  result.number: 0.19
- smiles: "COc1cc(Nc2ncc(-c3ccccc3)o2)cc(OC)c1OC"
  parameter: "inhibition"
  units.label: "%"
  result.number: 15.8

### Prompt Please indicate inhibition recorded for CCc1cccc(CC)c1/C=C/c1cncc(C(=O)NC)c1
### Response 4.93

### Prompt Please indicate inhibition recorded for COc1cccc(/C=N/Nc2ncnc3c2cnn3-c2cccc(OC)c2)c1
### Response 8.27

### Prompt Please indicate inhibition recorded for CS(=O)(=O)CCNCc1ccc(-c2ccc3ncnc(Nc4ccc(OCc5ccccc5)c(Br)c4)c3c2)o1
### Response 10.1

### Prompt Please indicate inhibition recorded for NCc1ccc(-n2c(-c3nonc3N)nc3cnccc32)cc1
### Response 33

### Prompt Please indicate inhibition recorded for c1ccc(-c2n[nH]cc2-c2ccnc(-c3ccc(OCCN4CCOCC4)cc3)c2)nc1
### Response 11.1

### Prompt Please indicate inhibition recorded for NS(=O)(=O)c1ccc(Nc2cc(-c3ccc(O)c(F)c3)n[nH]2)cc1
### Response 3.04

### Prompt Please indicate inhibition recorded for CCC(=O)Nc1ccc(C)c(-c2ccc(C(=O)NCC3CC3)cc2)c1
### Response 3.11

### Prompt Please indicate inhibition recorded for COc1ccc(-c2ccc3c(NC(=O)C4CC4)n[nH]c3n2)cc1
### Response 3.33

### Prompt Please indicate inhibition recorded for CCN(CC)Cc1ccc(Nc2nccc(-c3cnn4ncccc34)n2)cc1
### Response 70.5

### Prompt Please indicate inhibition recorded for NC(=O)c1cc(-c2ccncc2)cc(-c2ccccc2)c1N
### Response 14.7

### Prompt Please indicate inhibition recorded for CNC(=O)c1cncc(/C=C/c2c(C)cccc2C)c1
### Response 1.85

### Prompt Please indicate inhibition recorded for Fc1ccc(-c2c(-c3ccncc3)nc3n2CCS3)cc1
### Response 8.26

### Prompt Please indicate inhibition recorded for COc1ccc2cc(-c3c(-c4ccncc4)nc(-c4ccc(S(C)(=O)=O)cc4C)n3C)ccc2c1
### Response 8.9

### Prompt Please indicate inhibition recorded for N#Cc1ccc(Oc2nccc(-c3c(-c4ccc(F)cc4)ncn3C3CCNCC3)n2)cc1
### Response 7.93

### Prompt Please indicate inhibition recorded for Fc1ccc(-c2ncn(C3CCNCC3)c2-c2ccnc(Oc3ccc4c(c3)OCO4)n2)cc1
### Response 8.59
